Value source: ChEMBL document CHEMBL2176989

Target: 5-hydroxytryptamine receptor 6 (Homo sapiens) (UniProt P50406)
Sequence (P50406 whole entry): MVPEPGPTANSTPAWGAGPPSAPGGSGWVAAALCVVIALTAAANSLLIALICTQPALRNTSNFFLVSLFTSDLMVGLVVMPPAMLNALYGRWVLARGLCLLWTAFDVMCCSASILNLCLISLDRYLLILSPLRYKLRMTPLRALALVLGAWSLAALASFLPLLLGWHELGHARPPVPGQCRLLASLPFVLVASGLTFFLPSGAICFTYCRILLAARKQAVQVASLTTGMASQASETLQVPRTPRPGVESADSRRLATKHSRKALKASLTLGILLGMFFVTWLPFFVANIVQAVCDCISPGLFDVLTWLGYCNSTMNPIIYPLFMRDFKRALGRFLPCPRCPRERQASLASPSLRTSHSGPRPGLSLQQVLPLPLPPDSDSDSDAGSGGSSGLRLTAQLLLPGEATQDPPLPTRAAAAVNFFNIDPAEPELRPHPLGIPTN
Test: Antagonist activity at human recombinant 5HT6 receptor expressed in CHO cells assessed as inhibition of 5HT-induced luciferase activity after 4 hrs by reporter gene assay
Type: functional, cell-based
# Kb >= 0.3 nM gives yes, anything below gives no

For orientation, consider the following solved cases.
COc1ccc(S(=O)(=O)N2CCCc3ccccc32)cc1NC1CCN(C)CC1	no
COc1ccc(S(=O)(=O)n2cc(C)c3cc(Cl)cnc32)cc1NC1CCNCC1	no
CCc1ccc(S(=O)(=O)n2ccc3ccc(Cl)cc32)cc1NC1CCN(C)CC1	yes
Cc1cn(S(=O)(=O)c2cccc(NC3CCN(C)CC3)c2)c2ncc(Cl)cc12	yes
COc1ccc(S(=O)(=O)N2CCOc3ccc(C(F)(F)F)cc32)cc1NC1CCN(C)CC1	no
COc1ccc(S(=O)(=O)n2ccc3cc(F)ccc32)cc1NC1CCN(C)CC1	yes

QUERY: Dear colleague, could you confirm whether COc1ccc(S(=O)(=O)N2CCOc3ccc(Cl)cc32)cc1NC1CCN(C)CC1 has Kb at or above 0.3 nM?
RESULT: no

QUERY: Dear colleague, could you confirm whether CN1CCC(Nc2cccc(S(=O)(=O)n3ccc4cc(Br)ccc43)c2)CC1 has Kb at or above 0.3 nM?
RESULT: yes

QUERY: Dear colleague, could you confirm whether Cc1ccc(S(=O)(=O)n2cc(C)c3cc(Cl)cnc32)cc1NC1CCN(C)CC1 has Kb at or above 0.3 nM?
RESULT: yes

QUERY: Dear colleague, could you confirm whether COc1ccc(S(=O)(=O)n2ccc3cc(Cl)ccc32)cc1NC1CCN(C)CC1 has Kb at or above 0.3 nM?
RESULT: yes

QUERY: Dear colleague, could you confirm whether COc1ccc2c(ccn2S(=O)(=O)c2ccc(C)c(NC3CCN(C)CC3)c2)c1 has Kb at or above 0.3 nM?
RESULT: yes

QUERY: Dear colleague, could you confirm whether COc1ccc(S(=O)(=O)N2CCCc3ccccc32)cc1NC1CCNCC1 has Kb at or above 0.3 nM?
RESULT: no

QUERY: Dear colleague, could you confirm whether CN1CCC(Nc2cc(S(=O)(=O)n3ccc4cc(Br)ccc43)ccc2F)CC1 has Kb at or above 0.3 nM?
RESULT: yes

QUERY: Dear colleague, could you confirm whether CCc1ccc(S(=O)(=O)n2ccc3cc(F)ccc32)cc1NC1CCN(C)CC1 has Kb at or above 0.3 nM?
RESULT: yes

QUERY: Dear colleague, could you confirm whether COc1ccc2c(ccn2S(=O)(=O)c2ccc(OC)c(NC3CCN(C)CC3)c2)c1 has Kb at or above 0.3 nM?
RESULT: yes

QUERY: Dear colleague, could you confirm whether COc1ccc(S(=O)(=O)n2ccc3cc(Br)ccc32)cc1NC1CCNCC1 has Kb at or above 0.3 nM?
RESULT: yes

QUERY: Dear colleague, could you confirm whether COc1ccc(S(=O)(=O)n2ccc3cc(Br)ccc32)cc1NC1CCN(C)CC1 has Kb at or above 0.3 nM?
RESULT: yes

QUERY: Dear colleague, could you confirm whether Cc1ccc(S(=O)(=O)n2ccc3cc(F)ccc32)cc1NC1CCN(C)CC1 has Kb at or above 0.3 nM?
RESULT: yes

QUERY: Dear colleague, could you confirm whether COc1cnc2c(ccn2S(=O)(=O)c2ccc(OC)c(NC3CCN(C)CC3)c2)c1 has Kb at or above 0.3 nM?
RESULT: yes

QUERY: Dear colleague, could you confirm whether COc1ccc(S(=O)(=O)N2CCOc3ccc(C)cc32)cc1NC1CCN(C)CC1 has Kb at or above 0.3 nM?
RESULT: no

QUERY: Dear colleague, could you confirm whether COc1ccc2ccn(S(=O)(=O)c3ccc(Cl)c(NC4CCN(C)CC4)c3)c2c1 has Kb at or above 0.3 nM?
RESULT: yes

QUERY: Dear colleague, could you confirm whether CN1CCC(Nc2cccc(S(=O)(=O)n3ccc4ccccc43)c2)CC1 has Kb at or above 0.3 nM?
RESULT: yes

QUERY: Dear colleague, could you confirm whether COc1ccc(S(=O)(=O)n2cc(C)c3ccc(Cl)cc32)cc1NC1CCN(C)CC1 has Kb at or above 0.3 nM?
RESULT: no

----------
Target: UniProt P50406
Test: Antagonist activity at human recombinant 5HT6 receptor expressed in CHO cells assessed as inhibition of 5HT-induced luciferase activity after 4 hrs by reporter gene assay
Type: functional, cell-based
Would you kindly list Kb for each of these compounds?
Answers are plain numbers, in nM.

Before answering, review these 5 worked examples.
COc1ccc(S(=O)(=O)n2cc(C)c3cc(Cl)ccc32)cc1NC1CCN(C)CC1	0.02
Cc1nn(S(=O)(=O)c2ccc(Cl)c(NC3CCN(C)CC3)c2)c2ccc(Cl)cc12	28.6
CN1CCC(Nc2cc(S(=O)(=O)n3ccc4ccccc43)ccc2F)CC1	1.6
COc1ccc(S(=O)(=O)n2ccc3cc(F)ccc32)cc1NC1CCNCC1	0.3
COc1ccc(S(=O)(=O)N2CCOc3ccc(F)cc32)cc1NC1CCN(C)CC1	0.1

QUERY: Request: Kb, test system UniProt P50406, entry COc1ccc2c(ccn2S(=O)(=O)c2ccc(F)c(NC3CCN(C)CC3)c2)c1
RESULT: 11.7
